Source listed as paper PMC10786891.

Reported Kd values follow for various binders
Biological target: T1, EsCas13d, nuclease-dead (Eubacterium siraeum, UniProt B0MS50, R295A;H300A;R849A;H854A)
T1 sequence: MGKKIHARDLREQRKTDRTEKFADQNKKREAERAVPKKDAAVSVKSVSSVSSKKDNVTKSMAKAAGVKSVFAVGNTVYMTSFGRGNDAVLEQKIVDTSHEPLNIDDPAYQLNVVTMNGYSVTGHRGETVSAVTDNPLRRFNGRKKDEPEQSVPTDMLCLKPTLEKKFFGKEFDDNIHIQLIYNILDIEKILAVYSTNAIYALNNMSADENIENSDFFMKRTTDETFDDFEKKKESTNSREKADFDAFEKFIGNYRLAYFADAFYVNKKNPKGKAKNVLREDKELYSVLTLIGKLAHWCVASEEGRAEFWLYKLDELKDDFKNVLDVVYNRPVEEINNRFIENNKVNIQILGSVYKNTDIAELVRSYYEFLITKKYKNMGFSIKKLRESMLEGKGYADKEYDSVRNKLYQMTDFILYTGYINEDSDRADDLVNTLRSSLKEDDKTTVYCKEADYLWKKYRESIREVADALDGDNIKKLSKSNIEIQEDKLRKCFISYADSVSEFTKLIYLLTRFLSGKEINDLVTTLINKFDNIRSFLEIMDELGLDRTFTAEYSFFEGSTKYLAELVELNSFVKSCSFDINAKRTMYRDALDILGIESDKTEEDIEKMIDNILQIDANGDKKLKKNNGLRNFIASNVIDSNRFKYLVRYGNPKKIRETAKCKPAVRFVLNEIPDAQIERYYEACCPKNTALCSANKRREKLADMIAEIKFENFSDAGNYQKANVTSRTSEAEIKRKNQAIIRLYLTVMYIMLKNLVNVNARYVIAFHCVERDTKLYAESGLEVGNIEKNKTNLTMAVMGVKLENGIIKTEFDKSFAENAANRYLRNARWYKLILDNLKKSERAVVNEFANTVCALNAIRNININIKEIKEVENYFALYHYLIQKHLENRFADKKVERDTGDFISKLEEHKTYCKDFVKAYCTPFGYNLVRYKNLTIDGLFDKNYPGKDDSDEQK
Experiment: crRNA (strand 1, pre-loaded); Mg2+; 40 mM Tris-HCl pH 7.5, 150 mM NaCl, 6 mM MgCl2, 1 mM DTT, 0.1% Tween-20, 0.2 mg/ml BSA; 25 C; 10 min per concentration, then washed
Conditions: tags: His6-TwinStrep-SUMO cleaved; N-terminal SNAP kept (SNAP-Surface 488); label: 3' end held by stalled T7 RNA polymerase
Supply the numeric figure in nM, leaving out any unit text.

Kd for target 1 insA 3' of 15,insU 3' of 5 (mixed) RNA 1: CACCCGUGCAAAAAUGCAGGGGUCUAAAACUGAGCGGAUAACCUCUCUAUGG RNA 2: GGGAAUGGAUCCACAUCUACGAAUUCGUACCAUAGAGAAGGUUAUCCGUCUCACCGAGAUCGGAAGAGCACACGU is 27.9

Kd reading for target 3 C6U,U7A (mixed) RNA 1: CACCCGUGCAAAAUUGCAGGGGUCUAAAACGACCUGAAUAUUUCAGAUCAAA RNA 2: GGGAAUGGAUCCACAUCUACGAAUUCGUUUUUGAUCUGAAAUAUAUAGGUCUGCAGAUCGGAAGAGCACACGU : 40
